Data credit: patent US20210284638A1

# Target entity: Recombinant human integrin αVβ8 (Homo sapiens, UniProt P06756+P26012)
# Sequence (P06756 31-992 limits assumed): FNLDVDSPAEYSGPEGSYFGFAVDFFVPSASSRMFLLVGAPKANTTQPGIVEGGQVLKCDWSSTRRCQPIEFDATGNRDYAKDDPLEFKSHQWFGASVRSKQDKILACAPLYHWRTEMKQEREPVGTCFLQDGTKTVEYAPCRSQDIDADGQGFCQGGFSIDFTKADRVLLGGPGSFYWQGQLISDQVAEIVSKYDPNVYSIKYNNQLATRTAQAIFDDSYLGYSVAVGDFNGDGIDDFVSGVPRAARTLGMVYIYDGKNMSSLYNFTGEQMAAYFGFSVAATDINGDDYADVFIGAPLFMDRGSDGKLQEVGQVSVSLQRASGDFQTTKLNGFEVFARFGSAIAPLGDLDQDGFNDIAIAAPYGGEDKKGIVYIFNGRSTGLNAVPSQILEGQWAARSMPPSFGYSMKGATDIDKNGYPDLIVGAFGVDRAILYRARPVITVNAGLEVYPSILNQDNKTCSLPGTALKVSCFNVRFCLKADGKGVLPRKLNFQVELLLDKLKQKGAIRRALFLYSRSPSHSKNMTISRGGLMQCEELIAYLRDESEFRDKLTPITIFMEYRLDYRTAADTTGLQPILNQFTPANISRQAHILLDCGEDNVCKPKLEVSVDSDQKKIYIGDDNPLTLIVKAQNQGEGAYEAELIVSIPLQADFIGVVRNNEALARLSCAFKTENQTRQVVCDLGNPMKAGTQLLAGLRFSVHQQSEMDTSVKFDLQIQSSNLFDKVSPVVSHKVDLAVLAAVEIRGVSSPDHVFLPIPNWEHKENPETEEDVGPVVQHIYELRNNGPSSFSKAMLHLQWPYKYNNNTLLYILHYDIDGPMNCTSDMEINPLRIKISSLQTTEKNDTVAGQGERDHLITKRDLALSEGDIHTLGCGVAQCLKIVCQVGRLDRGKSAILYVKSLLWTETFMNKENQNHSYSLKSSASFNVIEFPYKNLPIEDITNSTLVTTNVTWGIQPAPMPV
# Sequence (P26012 43-684 limits assumed): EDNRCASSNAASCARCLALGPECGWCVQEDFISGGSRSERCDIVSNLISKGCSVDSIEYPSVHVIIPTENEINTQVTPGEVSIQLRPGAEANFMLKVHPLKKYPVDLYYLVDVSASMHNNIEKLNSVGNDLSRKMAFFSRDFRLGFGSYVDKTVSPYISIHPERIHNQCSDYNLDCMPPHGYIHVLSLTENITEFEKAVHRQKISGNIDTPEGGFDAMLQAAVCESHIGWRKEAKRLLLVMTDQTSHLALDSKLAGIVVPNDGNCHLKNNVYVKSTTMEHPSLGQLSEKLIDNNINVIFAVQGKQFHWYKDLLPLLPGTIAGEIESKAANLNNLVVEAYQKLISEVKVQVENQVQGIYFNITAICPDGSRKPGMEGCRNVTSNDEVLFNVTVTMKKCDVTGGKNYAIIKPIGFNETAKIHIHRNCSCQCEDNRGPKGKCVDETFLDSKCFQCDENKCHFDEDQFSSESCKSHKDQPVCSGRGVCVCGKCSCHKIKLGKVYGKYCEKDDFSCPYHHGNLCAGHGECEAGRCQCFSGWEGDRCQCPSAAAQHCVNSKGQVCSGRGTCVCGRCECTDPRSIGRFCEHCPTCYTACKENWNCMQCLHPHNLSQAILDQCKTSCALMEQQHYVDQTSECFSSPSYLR
# Measurement description: Solid Phase Receptor Assay for αVβ8 function
# Experimental conditions: plate-bound human LAP; read-out: αVβ8 SPRA IC50
Would you mind telling me the reported IC50 of each entry?
Give a bare numeral; the unit nM is implied.

# IC50 (molecule: COc1c(C(C)C)cc(C(CC(=O)O)Cc2cc(OCCc3ccc4c(n3)NCCC4)n(C)n2)cc1C(C)C (stereo not shown) ) is 18

# IC50 (molecule: COCC1(c2ccc(OC)c(C(CC(=O)O)Cc3cc(OCCc4ccc5c(n4)NCCC5)n(C)n3)c2)CCOCC1 (stereo not shown) ) is 1000

# IC50 (molecule: COc1ccc(C2(C(F)F)CC2)cc1C(CC(=O)O)Cc1csc(CCCc2ccc3c(n2)NCCC3)n1 (stereo not shown) ) is 29

# IC50 (molecule: CC(C)(C)c1ccc(C#N)c(C(CC(=O)O)Cc2csc(CCCc3ccc4c(n3)NCCC4)n2)c1 (stereo not shown) ) is 8
